assayedTarget: human β3-AR (Homo sapiens, UniProt P13945)
Construct: Full-length β3-AR clones (402 amino acids) containing the last 6 amino acids of hβ3-AR; expressed in transfected cells; host or cells: CHO (Chinese hamster ovary) cells
Sequence (P13945 whole entry): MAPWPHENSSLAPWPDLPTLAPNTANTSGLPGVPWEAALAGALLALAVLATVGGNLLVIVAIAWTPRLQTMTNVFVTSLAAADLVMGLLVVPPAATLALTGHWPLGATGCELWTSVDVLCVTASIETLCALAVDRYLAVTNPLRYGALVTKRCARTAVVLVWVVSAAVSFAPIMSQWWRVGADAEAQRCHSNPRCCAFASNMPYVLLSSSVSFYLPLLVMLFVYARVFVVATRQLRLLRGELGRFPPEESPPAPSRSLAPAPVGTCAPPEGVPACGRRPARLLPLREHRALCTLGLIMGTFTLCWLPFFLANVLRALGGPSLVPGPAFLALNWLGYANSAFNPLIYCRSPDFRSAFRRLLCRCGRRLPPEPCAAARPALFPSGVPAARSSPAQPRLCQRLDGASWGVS
assayRemarks: cAMP accumulation (SPA) in CHO cells transfected with human β3-AR
Assay type: cell-based
particulars: CHO cells transfected with human β3-AR; cAMP by SPA; 30 min at 37° C.; 10^−9 M to 10^−5 M; read-out: EC50(β3)
measuredQuantity: EC50 (µM)

// worked examples, EC50 included
molecule	measuredQuantity	unitsOfMeasure	experimentalValue
CCOC(=O)CCCNC1=NS(=O)(=O)N=C1Nc1ccc(CC(C)NC[C@H](O)COc2ccc(O)cc2)cc1 (some centres unmarked) [Compound 33]	EC50	µM	0.037
CCCCCCCCCCNC1=NS(=O)(=O)N=C1Nc1ccc(CC(C)NC[C@H](O)c2ccc(O)c(NS(C)(=O)=O)c2)cc1 (some centres unmarked) [Compound 27]	EC50	µM	0.009
CCOC(=O)CCCNC1=NS(=O)(=O)N=C1Nc1ccc(CC(C)NC[C@H](O)COc2ccc(OCc3ccccc3)cc2)cc1 (some centres unmarked) [Compound 32]	EC50	µM	0.09

[a] CCCCCCCCCCNC1=NS(=O)(=O)N=C1Nc1ccc(CC(C)NC[C@H](O)COc2ccc(O)cc2)cc1 (some centres unmarked) [Compound 25]
[b] CCCCCCCCNc1c(Nc2ccc(CC(C)NC[C@H](O)COc3ccc(O)cc3)cc2)c(=O)c1=O (some centres unmarked) [Compound 14]
Ask: In the pair a and b , the larger recorded EC50 belongs to which? Returns: label corresponding to the selected item.
Reply: a

[A] CCCCCCCCCCNc1c(Nc2ccc(CC(C)NC[C@H](O)COc3ccc(O)cc3)cc2)c(=O)c1=O (some centres unmarked) [Compound 15]
[B] CCCCCCCCNC1=NS(=O)(=O)N=C1Nc1ccc(CCNC[C@H](O)COc2ccc(O)cc2)cc1 [Compound 5]
[C] CCCCCCNC(=O)Nc1ccc(C2(CNC3=NS(=O)(=O)N=C3Nc3ccc(CC(C)(C)NC[C@H](O)COc4ccc(O)cc4)cc3)CCCC2)cc1 [Compound 8]
Ask: Please order the records by their reported EC50, lowest number first. Arrange the labels as the request states and list them.
Reply: C, B, A
